Cited source: patent US10829473B2

- experimental_system: F508delCFTR (Homo sapiens, UniProt P13569, DEL508-508)
- Construct: expressed in transfected cells; host or cells: CFBE41o- human lung derived epithelial cells (CFBE41o-F508delCFTR-HRP), doxycycline-inducible
- Sequence (P13569 with tags, fused parts or gaps DEL508-508): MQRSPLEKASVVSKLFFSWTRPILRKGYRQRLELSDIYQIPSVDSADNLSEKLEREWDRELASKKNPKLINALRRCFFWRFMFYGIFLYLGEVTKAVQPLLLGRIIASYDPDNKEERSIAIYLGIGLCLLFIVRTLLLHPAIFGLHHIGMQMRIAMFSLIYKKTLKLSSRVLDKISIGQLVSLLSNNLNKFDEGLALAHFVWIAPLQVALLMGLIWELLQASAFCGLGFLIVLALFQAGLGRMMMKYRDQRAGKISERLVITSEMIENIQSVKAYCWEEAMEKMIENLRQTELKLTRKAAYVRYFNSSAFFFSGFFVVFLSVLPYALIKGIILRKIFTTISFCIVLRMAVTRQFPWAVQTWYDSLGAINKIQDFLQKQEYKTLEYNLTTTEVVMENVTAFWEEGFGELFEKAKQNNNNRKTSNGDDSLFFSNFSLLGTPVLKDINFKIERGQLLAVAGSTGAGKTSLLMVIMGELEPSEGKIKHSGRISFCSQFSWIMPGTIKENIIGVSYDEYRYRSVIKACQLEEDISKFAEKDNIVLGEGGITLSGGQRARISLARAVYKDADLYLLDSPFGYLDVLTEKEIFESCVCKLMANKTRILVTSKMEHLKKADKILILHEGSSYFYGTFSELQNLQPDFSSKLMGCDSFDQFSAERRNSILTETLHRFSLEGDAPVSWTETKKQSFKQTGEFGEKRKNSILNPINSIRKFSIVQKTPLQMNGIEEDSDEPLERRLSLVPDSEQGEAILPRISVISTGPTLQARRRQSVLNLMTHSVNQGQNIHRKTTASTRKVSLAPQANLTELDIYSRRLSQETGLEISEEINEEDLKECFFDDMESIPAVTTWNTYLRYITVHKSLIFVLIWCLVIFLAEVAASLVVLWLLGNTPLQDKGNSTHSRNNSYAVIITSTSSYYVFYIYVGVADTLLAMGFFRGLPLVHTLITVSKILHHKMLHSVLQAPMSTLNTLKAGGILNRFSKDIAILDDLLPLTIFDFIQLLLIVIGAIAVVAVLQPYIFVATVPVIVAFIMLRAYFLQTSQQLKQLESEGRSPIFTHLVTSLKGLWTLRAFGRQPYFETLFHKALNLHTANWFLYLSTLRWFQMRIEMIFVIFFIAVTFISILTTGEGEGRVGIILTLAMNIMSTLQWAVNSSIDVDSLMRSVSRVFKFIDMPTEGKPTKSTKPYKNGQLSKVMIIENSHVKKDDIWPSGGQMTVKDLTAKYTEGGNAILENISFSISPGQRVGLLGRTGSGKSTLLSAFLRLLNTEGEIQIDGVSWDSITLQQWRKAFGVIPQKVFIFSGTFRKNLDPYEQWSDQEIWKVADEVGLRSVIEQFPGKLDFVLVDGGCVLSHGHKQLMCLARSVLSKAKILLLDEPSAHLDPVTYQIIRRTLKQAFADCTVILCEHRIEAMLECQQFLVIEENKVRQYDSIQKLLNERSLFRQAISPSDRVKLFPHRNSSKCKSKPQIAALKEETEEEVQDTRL
- test_details: Cell Surface Expression-Horse Radish Peroxidase (CSE-HRP) Assay
- Format: cell-based
- test_parameters: with co-corrector; maximum at any tested concentration
endpoint_label: Maximum % activity (with co-corrector)

>>> assay_value("O=C(CCc1ccccc1)N1CCC(S(=O)(=O)NC(=O)C2(c3ccc(Cl)cc3Cl)CC2)CC1 [Example III-79]")
"+ (<150)"
>>> assay_value("O=C(NS(=O)(=O)C(F)(F)F)C1(c2ccc(Cl)cc2Cl)CC1 [Example III-105]")
"+ (<150)"
>>> assay_value("COc1cc(C2CCC2)cc(OC)c1C1(C(=O)NS(=O)(=O)c2cccc3nc(C)ccc23)CC1 [II-69]")
"+++ (≥350)"
>>> assay_value("COc1ccc(C2CCC2)cc1C1(C(=O)NS(=O)(=O)c2cccc3cnn(C)c23)CC1 [Example I-60]")
"+++ (≥350)"

###

- experimental_system: F508delCFTR (Homo sapiens, UniProt P13569, DEL508-508)
- Construct: expressed in transfected cells; host or cells: CFBE41o- human lung derived epithelial cells (CFBE41o-F508delCFTR-HRP), doxycycline-inducible
- test_details: Cell Surface Expression-Horse Radish Peroxidase (CSE-HRP) Assay;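 as to Maximum % activity (without co-corrector): % of on-plate positive control chromenyl benzoic acid corrector at 2 or 3 µM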
- Format: cell-based
- test_parameters: test compound without co-corrector; maximum at any tested concentration; read-out: Maximum % activity (without co-corrector)
Each record here notes measured Emax.

Reference set, count: 4
>>> assay_value("COc1cc(C2(C(=O)NS(=O)(=O)c3cccc4ncccc34)CC2)c(OCC(F)F)cn1")
"50 to 150%"
>>> assay_value("COc1cc(C)c(C2(C(=O)NS(=O)(=O)c3cccc4c3CCCN4)CC2)cn1")
"50 to 150%"
>>> assay_value("O=C(NS(=O)(=O)c1cccc2ncccc12)C1(c2cc(Cl)cnc2N2CCCC2)CC1")
"> 150%"
>>> assay_value("Cc1cnc(OCC(C)C)c(C2(C(=O)NS(=O)(=O)c3cccc4nc(C)ccc34)CC2)c1")
"> 150%"

Given the compound `COCCOc1ncc(C)cc1C1(C(=O)NS(=O)(=O)c2cccc3nc(C)ccc23)CC1` , write its reported Emax.
> 150%

Given the compound `COc1cc(C2(C(=O)NS(=O)(=O)c3cccc4ncccc34)CC2)c(OC(F)F)cn1` , write its reported Emax.
50 to 150%

Given the compound `CCc1ccncc1C1(C(=O)NS(=O)(=O)c2cccc3c2CCCN3)CC1` , write its reported Emax.
< 50%

Given the compound `COc1nc(C(F)(F)F)ccc1C1(C(=O)NS(=O)(=O)c2cccc3ncccc23)CC1` , write its reported Emax.
> 150%

Given the compound `COc1cnc(OCC(C)C)c(C2(C(=O)NS(=O)(=O)c3cccc4nc(C)ccc34)CC2)c1` , write its reported Emax.
> 150%

Given the compound `CC(C)COc1ncc(N2CCCC2)cc1C1(C(=O)NS(=O)(=O)c2cccc3[nH]ccc23)CC1` , write its reported Emax.
> 150%

Given the compound `Cc1cnc(N2CCCC2)c(C2(C(=O)NS(=O)(=O)c3cccc4nc(C)ccc34)CC2)c1` , write its reported Emax.
50 to 150%

Given the compound `O=C(NS(=O)(=O)c1cccc2ccccc12)C1(c2ccc(C(F)(F)F)nc2Cl)CC1` , write its reported Emax.
50 to 150%

Given the compound `CN1CCN(c2ncc(C3CCC3)cc2C2(C(=O)NS(=O)(=O)c3cccc4ncccc34)CC2)CC1` , write its reported Emax.
< 50%

Given the compound `O=C(NS(=O)(=O)c1cccc2[nH]ccc12)C1(c2cc(C3CCC3)cnc2N2CCCC2)CC1` , write its reported Emax.
> 150%

Given the compound `O=C(NS(=O)(=O)c1cccc2ncccc12)C1(c2cccnc2N2CCCC2)CC1` , write its reported Emax.
50 to 150%

Given the compound `COCCOc1ncc(C2CCC2)cc1C1(C(=O)NS(=O)(=O)c2cccc3ncccc23)CC1` , write its reported Emax.
> 150%

Given the compound `COc1cc(C2(C(=O)NS(=O)(=O)c3cccc4ncccc34)CC2)c(Cl)cn1` , write its reported Emax.
50 to 150%
